Recorded values, source the supplement of paper PMC10567573.

B1: RHOBTB1 (parent)
chain: TFGDHHKDRRFAYGRSDVVVLCFS

variants of: B1; experiment: protein stability index of a GFP-peptide fusion (GPS, HEK-293T) (PSI 1-6); higher = more stable; details: c terminus: a fixed tail appended;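 also: lentivirally expressed fusions sorted by FACS into six bins by GFP to DsRed ratio, PSI derived from sequencing read proportions per bin multiplied by bin number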
I would appreciate it if you labelled entries Satisfied when protein stability index is 2 or higher, otherwise Not satisfied.

[[record]]
mutation = "F11S"
class_assignment = "Not satisfied"

[[record]]
mutation = "R10N"
class_assignment = "Satisfied"

[[record]]
mutation = "R10A"
class_assignment = "Satisfied"

[[record]]
mutation = "D8R"
class_assignment = "Satisfied"

[[record]]
mutation = "H5L"
class_assignment = "Satisfied"


## Input Exam item: decide whether the reported protein stability index for "V18T" is at least 2.
## Output Not satisfied

## Input For "H5W" then?
## Output Satisfied

## Input For "F2W" then?
## Output Satisfied

## Input For "T1F" then?
## Output Satisfied

## Input For "R15Y" then?
## Output Satisfied

## Input For "V19G" then?
## Output Not satisfied

## Input For "S24V" then?
## Output Satisfied
